// reported hCRHR1 Luciferase Reporter Assay IC50 per item
- Measurement Target: T1, corticotropin-releasing hormone (CRH) peptide (human and mouse (same sequence), not fully specified)
- T1 peptide: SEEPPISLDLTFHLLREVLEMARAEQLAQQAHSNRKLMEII
- Assay: cell-based or functional assay
Form entry: value (nM) — number only.

Illustrative cases are given below, each with its answer.
- Binder: "PR302341-53 (antibody, human IgG1, kappa, V domains shown) VH: QVQLVQSGAEVKKPGASVKVSCKASGYTFTDYFMKWVRQAPGQGLEWMGVINPNSGDIFYNQKFKGRVTMTVDKSTSTAYMELSSLRSEDTAVYYCARGTDRALFAYWGQGTLVTVSS VL: DVVMTQTPLSSPVTLGQPASISCRSGQSIVHSSGNTYLEWYQQRPGQPPRLLIYKVSNRFSGVPDRFSGSGAGTDFTLKISRVEAEDLGVYYCFQGSHIPWTFGGGTKVEIKR"
  hCRHR1 Luciferase Reporter Assay IC50, nM: 1.7
- Binder: "PR302341-64 (antibody, human IgG1, kappa, V domains shown) VH: QVQLVQSGAEVKKPGASVKVSCKASGYTFTDYFMKWVRQAPGQRLEWMGVINPNNADIFYNQKFKGRVTITRDTSASTAYMELSSLRSEDTAVYYCARGTDRALFAYWGQGTLVTVSS VL: DVVMTQSPLSLPVTLGQPASISCRSGQSIVHSSGNTYLEWYQQRPGQSPRLLIYKVSNRFSGVPDRFSGSGSGTDFTLKISRVEAEDLGVYYCFQGSHIPWTFGGGTKVEIKR"
  hCRHR1 Luciferase Reporter Assay IC50, nM: 1.09
- Binder: "PR302341-28 (antibody, human IgG1, kappa, V domains shown) VH: QVQLVQSGAEVKKPGASVKVSCKASGYTFTDYFMKWVRQAPGQGLEWMGVINPNQGDIFYNQKFKGRVTMTVDKSISTAYMELSRLRSDDTAVYYCARGTDRALFAYWGQGTLVTVSS VL: DVVMTQSPLSLPVTLGQPASISCRSGQSIVHSDGNTYLEWYQQRPGQSPRLLIYKVSNRFSGVPDRFSGSGSGTDFTLKISRVEAEDLGVYYCFQGSHIPWTFGGGTKVEIKR"
  hCRHR1 Luciferase Reporter Assay IC50, nM: 0.267
- Binder: "PR302341-69 (antibody, human IgG1, kappa, V domains shown) VH: QVQLVQSGAEVKKPGASVKVSCKASGYTFTDYFMKWVRQAPGQGLEWMGVINPNNGDIFYNQKFKGRVTMTVDKSTSTAYMELSSLRSEDTAVYYCARGTDRALFAYWGQGTLVTVSS VL: DVVMTQTPLSSPVTLGQPASISCRSGQSIVHSSGNTYLEWYQQRPGQPPRLLIYKVSNRFSGVPDRFSGSGAGTDFTLKISRVEAEDLGVYYCFQGSHIPWTFGGGTKVEIKR"
  hCRHR1 Luciferase Reporter Assay IC50, nM: 0.552

Fill in the blank: the reported hCRHR1 Luciferase Reporter Assay IC50 of PR302341-68 (antibody, human IgG1, kappa, V domains shown) VH: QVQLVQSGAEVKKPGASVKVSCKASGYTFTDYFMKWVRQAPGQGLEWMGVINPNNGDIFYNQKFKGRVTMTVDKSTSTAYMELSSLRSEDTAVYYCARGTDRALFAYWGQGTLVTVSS VL: DVVMTQTPLSSPVTLGQPASISCRSGQSIVHSEGNTYLEWYQQRPGQPPRLLIYKVSNRFSGVPDRFSGSGAGTDFTLKISRVEAEDLGVYYCFQGSHIPWTFGGGTKVEIKR is ____.
0.418
